system: blood platelet aggregation; test: Oral administration to rabbits; inhibition of blood platelet aggregation induced by ADP or collagen in platelet rich plasma (Example 56); format: in vivo; conditions: ADP 0.25-1.0 microgram; rabbit, oral single dose 25 mg./kg.; 6 hrs.
Where a name gives a salt, the structure may show the parent alone.
% Inhibition of Blood Platelet Aggregation Induced by ADP values, listed per item
The answer consists of two parts: a number and, after it, its unit.

{"molecule": "N=C(N/C=C/c1ccc(Cl)c(Cl)c1)C1CC1 [HYDROCHLORIDE]", "assay_value": "75%"}
{"molecule": "CC(=N)N/C=C/c1ccc(Cl)c(Cl)c1 [HYDROCHLORIDE]", "assay_value": "55%"}
{"molecule": "N=C(N/C=C/c1ccc(Cl)c(Cl)c1)c1ccccc1 [HYDROCHLORIDE]", "assay_value": "22%"}
{"molecule": "CC(C)(C)C(=N)N/C=C/c1ccc(Cl)c(Cl)c1", "assay_value": "87%"}

// switching to the query molecule
Measured % Inhibition of Blood Platelet Aggregation Induced by ADP, CCCC(=N)N/C=C/c1ccc(Cl)c(Cl)c1 [HYDROCHLORIDE] : 30%
